B1: ACBD3 (parent)
chain: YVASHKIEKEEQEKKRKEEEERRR

variants of: B1; experiment: protein stability index of a GFP-peptide fusion (GPS, HEK-293T) (PSI 1-6); higher = more stable; settings: c terminus: a fixed tail appended;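 also: lentivirally expressed fusions sorted by FACS into six bins by GFP to DsRed ratio, PSI derived from sequencing read proportions per bin multiplied by bin number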
Would you mind labelling by protein stability index? At or over 2 is rule met, under is rule not met.

mutationLabel | assignedCategory
E10Y | rule met
Y1Q | rule met
E20R | rule not met
E11G | rule met
K15P | rule met
A3Q | rule met
I7A | rule met
A3T | rule met
A3I | rule met
E21F | rule met
K15G | rule met
Y1K | rule met
R22W | rule met
E10R | rule not met
H5N | rule met
R16F | rule met
E8M | rule not met
E20M | rule met
E19L | rule met
